- MEASURED_TARGET: T1, FLAG-tagged human APRIL (human, UniProt O75888 105-250, limits assumed)
- T1 construct: also called FLAG-tagged APRIL; FLAG-APRIL; not shown: FLAG tag
- T1 sequence (looked up): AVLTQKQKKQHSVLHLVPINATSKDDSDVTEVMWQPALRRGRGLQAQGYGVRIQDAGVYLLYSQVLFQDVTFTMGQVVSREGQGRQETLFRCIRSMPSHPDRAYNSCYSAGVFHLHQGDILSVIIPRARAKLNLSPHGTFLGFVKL
- EXPERIMENTAL_PROTOCOL: FLAG-APRIL ELISA after 10 min at 65 °C, antibody at 1 µg/ml
PROPERTY_NAME: % residual binding after heat treatment (room temperature = 100%)

>>> observed_value("VH11.VL15 (antibody, human IgG4 S228P, kappa, V domains shown, Humanized IgG4 (S241P, Kabat) with human kappa, from HEK293T; also called 11.15) VH: QVQLVQSGAEVKKPGASVKVSCKASGYTFTSYVMHWVRQAPGQRLEWMGYINPYNDAPKYNEKFKGRVTITRDTSASTAYMELSSLRSEDTAVYYCARGLGYALYYAMDYWGQGTTVTVSS VL: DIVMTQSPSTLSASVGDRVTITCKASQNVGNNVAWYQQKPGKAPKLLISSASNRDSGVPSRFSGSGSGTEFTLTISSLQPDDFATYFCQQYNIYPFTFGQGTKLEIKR")
55.1
>>> observed_value("VH13.VL15 (antibody, human IgG4 S228P, kappa, V domains shown, Humanized IgG4 (S241P, Kabat) with human kappa, from HEK293T; also called 13.15) VH: QVQLVQSGAEVKKPGASVKVSCKASGYTFTSYVMHWVRQAPGQGLEWMGYINPYNDAPKYNEKFKGRVTMTRDTSTSTVYMELSSLRSEDTAVYYCARGLGYALYYAMDYWGQGTMVTVSS VL: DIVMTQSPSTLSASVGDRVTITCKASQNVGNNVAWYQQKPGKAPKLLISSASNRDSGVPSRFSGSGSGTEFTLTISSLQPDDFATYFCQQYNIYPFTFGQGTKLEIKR")
44.4
>>> observed_value("VH12.VL15 (antibody, human IgG4 S228P, kappa, V domains shown, Humanized IgG4 (S241P, Kabat) with human kappa, from HEK293T; also called 12.15) VH: QVQLVQSGAEVKKPGASVKVSCKASGYTFTSYVMHWVRQAPGQGLEWMGYINPYNDAPKYNEKFKGRVTMTRDTSISTAYMELSRLRSDDTAVYYCARGLGYALYYAMDYWGQGTTVTVSS VL: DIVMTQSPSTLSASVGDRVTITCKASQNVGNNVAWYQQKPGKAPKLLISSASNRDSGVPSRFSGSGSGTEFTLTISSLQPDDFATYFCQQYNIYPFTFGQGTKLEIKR")
49.8
>>> observed_value("hAPRIL.01A (antibody, mouse IgG1, kappa, V domains shown, Mouse antibody; also called mouse hAPRIL.01A antibody) VH: EVQLQQSGPELVKPGASVKMSCKASGYTFTSYVMHWVKQKPGQGLEWIGYINPYNDAPKYNEKFKGKATVTSDKSSGTAYMELSSLTSEDSAVYYCARGLGYALYYAMDYWGQGTSVTVSS VL: DIVMTQSQKFKSTSVGDRVSVTCKASQNVGNNVAWYQQKAGQSPKALISSASNRDSGVPDRFTGSGSGTDFTLTISNVQSEDLADYFCQQYNIYPFTFGSGTKLEIKR")
8.4
